FYI, the data here is from patent US20250027068.

target: pooled human IgG (human IgG1,2,3 and 4)
Consider the following proteins and their measured Enzyme Activity Endpoint Assay: IgG readings.

Guide cases for Enzyme Activity Endpoint Assay: IgG, answers given:
- protein: "PRT-284 (protein) MVTSVWTKGVTPPAKFTQGEDVFHAPYVANQGWYDITKTFNGKDDLLCGAATAGNMLHWWFDQNKEKIEAYLKKHPDKQKIMFGDQELLDVRKVINTKGDQTNSELFNYFRDKAFPNLSARRIGVMPDLVLDMFINGYYLNVYKTQTTDVNRTYQEKDRRGGIFDAVFTRGDQSKLLTSRHDFKEKNLKEISDLIKKELTEGKALGLSHTYANVRLNHVINLWGADFDSNGNLKAIYVTDSDSNASIGMKKYGVGVNSAGKVAISAKEIKEDNIGAQVLGLFTLSTGQDSWNQTN"
  parameter: "Enzyme Activity Endpoint Assay: IgG"
  result value: "45 ng/µL"
- protein: "PRT-276 (protein) MVTSVWTKGVTPPTDFIYGEDVLHAPYKAGQGWYDITKTFNGKDNLLCGAATAGNMLHWWFDQNKEQIENYLKKHPEKQKIIFNNQELFDLKAAIDTKDSQLDSKLFEYFLEKAFPNLSTKHLGVFPDHVIDMFINGYRLSLLNHGPTPVKRGSKDKRGGIFDAVFTRGVQSKLLTNRHDLKNKTLKEISDLIKQELTEGKALGISHTYANVRINHVINLWGADFDAEGNLEAIAVTDSDTNASIGMKKYFVGVNSSGKVAISAKEIEEDNIGAQVLGLFTLSTGQDIWNQTN"
  parameter: "Enzyme Activity Endpoint Assay: IgG"
  result value: "0 ng/µL"
- protein: "PRT-292 (protein) MVTSVWTKGVTPPADFTQGEDVFHAPYDANQGWYDITKTFNGKDDLLCGAATAGNMLHWWFDQNKEYIEAYLKKHPEKQKIMFGDQELLDVRKAINTKGSQKNSELFNYFRDKAFPNLSARRLGVMPDLVLDMFINGYYLNVTKTQTTDVNRTYQEKDKRGGIFDAVFTRGDQSKLLTSRHDFKEKGLKEISDLIKQELTEGKALGLSHTYANVRISHVINLWGADFDSDGNLKAIYVTDSDSNASIGMKKYFVGVNSAGKVAISAKEIKEDNIGAQVLGLFTLSTGQDIWNQTN"
  parameter: "Enzyme Activity Endpoint Assay: IgG"
  result value: "0 ng/µL"

// query Enzyme Activity Endpoint Assay: IgG value for entry PRT-243 (protein) MVTSVWTKGVTPPANFTQGEDVFHAPYVANQGWYDITKLFNGKDDLLCGAATAGNMLHWWFDQNKDQIKRYLEEHPEKQKINFNGEQMFDVKEAIDTKNHQLDSKLFDYFKEKAFPNLSTKHLGVFPDHVIDMFINGYRLSLLNHGPTPVKEGSKDPRGGIFDAVFTRGDQSKLLTSRHDFKEKNLKEISDLIKKELTEGKALGLSHTYANGRINHVINLWGADFDSNGNLKAIYVTDSDSNPSIGMKKYFVGVNSSGKVAISAKEIKEDNIGAQVLGLFTLSTGQDSWNQTN
25 ng/µL
